- TARGET_UNDER_TEST: human IsK protein (UniProt P15382+P70057)
- Construct: channel formed with endogenous oocyte KCNQ1; two-microelectrode voltage clamp
- MEASUREMENT_DESCRIPTION: cell-based
- CONDITIONS: human IsK expressed in Xenopus oocytes, -10 mV voltage jumps lasting 15 s, room temperature, pH 7.5; Hill equation
pIC50: −log10 of the molar value.
Reported pIC50 by item:

• CCS(=O)(=O)N(CC(=O)NCCN(C)Cc1ccccc1)C1CC(C)(C)Oc2ccc(F)cc21 (stereo not drawn) [Example 62] = > 6.00

Record COCCOCCCCN(C1CC(C)(C)Oc2ccc(OCc3ccccc3)cc21)S(C)(=O)=O (stereo not drawn) [Example 29] : what is its pIC50 with human IsK protein (UniProt P15382+P70057)?
> 6.00

Param readout = pIC50; param system = human IsK protein (UniProt P15382+P70057); param query = CC1(C)CC(N(CCCCOCC(=O)O)S(C)(=O)=O)c2cc(OCc3ccccc3)ccc2O1 (stereo not drawn) [Example 34] ; response: value
~6.15

# credit: patent US5955607A
